Assay: APR_HepG2_MitoticArrest_24hr: Apredica 24-hour HepG2 Assay for Mitotic Arrest (AID 2282910)
Details: high-content imaging, actives raise or lower the signal
Calls of active or inactive are those of the source. The calls were made as follows: active = hit-call score of the fitted dose curve at least 0.9, where 1 is the maximum; inactive = score below 0.9.
measurement_label: AC50

CN(Cc1cnc2nc(N)nc(N)c2n1)c1ccc(C(=O)N[C@@H](CCC(=O)O)C(=O)O)cc1 :: inactive
CCCCC(CC)C(=O)O (configuration not stated) :: inactive
O=C(c1ccccc1)c1ccccc1 :: inactive
CC(=O)Nc1ccc(O)cc1 :: inactive
CCCCCCCCCCCCOS(=O)(=O)O :: inactive

**Query** Please look at this compound and report its AC50: `CS(=O)(=O)c1ccc([C@@H](CC2CCCC2)C(=O)Nc2cnccn2)cc1Cl`
**Result** inactive

**Query** Please look at this compound and report its AC50: `CCCCC=O`
**Result** inactive

**Query** Please look at this compound and report its AC50: `CN(C)CCOC(c1ccccc1)c1ccccc1`
**Result** inactive

**Query** Please look at this compound and report its AC50: `O=C1NS(=O)(=O)c2ccccc21`
**Result** inactive

**Query** Please look at this compound and report its AC50: `OCC(CO)(CBr)CBr`
**Result** inactive

**Query** Please look at this compound and report its AC50: `O=C(CCCN1CCC(O)(c2ccc(Cl)cc2)CC1)c1ccc(F)cc1`
**Result** 34.5 µM (active)

**Query** Please look at this compound and report its AC50: `CCCCCCCCCCCCCCC`
**Result** inactive
